# test-system: chymotrypsin (Bos taurus)
# protocol-description: Enzymatic degradation study: proteolytic stability on incubation with chymotrypsin (HPLC, LCMS)
# Type: in vitro ADME
# test-conditions: chymotrypsin (isolated protease) in Tris buffer; chymotrypsin, 10 mM Tris buffer pH 7.5, peptide 1.5 mM; time 120 min; read-out: enzyme degradation studies, peptide at time point
Ends that are not written are not given here.
value-kind: remaining at 2 h, 1.5 mM (%)

>>> experimental_result("AVGPFEY-NH2 [AVGPFEY]")
0

---

# test-system: chymotrypsin (Bos taurus, UniProt P00766)
# protocol-description: Enzymatic degradation study: proteolytic stability on incubation with chymotrypsin (HPLC, LCMS)
# Assay type: in vitro ADME
# test-conditions: chymotrypsin, 10 mM Tris buffer pH 7.5, peptide 1.5 mM; time 0 min
value-kind: enzyme degradation studies, peptide at time point (%)

>>> experimental_result("CC(C)[C@H]1C(=O)NCC(=O)N2CCC[C@H]2C(=O)N[C@@H](Cc2ccccc2)C(=O)N[C@H](C(=O)N[C@@H](Cc2ccc(O)cc2)C(N)=O)CCC(=O)NC[C@@H]2N[C@@H](C)C(=O)N21")
100

---

# test-system: chymotrypsin (Bos taurus)
# protocol-description: Enzymatic degradation study: proteolytic stability on incubation with chymotrypsin (HPLC, LCMS)
# Type: in vitro ADME
# test-conditions: chymotrypsin (isolated protease) in Tris buffer; chymotrypsin, 10 mM Tris buffer pH 7.5, peptide 1.5 mM; time 45 min; read-out: enzyme degradation studies, peptide at time point
value-kind: remaining at 0.75 h, 1.5 mM

>>> experimental_result("CC(C)[C@H]1C(=O)NCC(=O)N2CCC[C@H]2C(=O)N[C@@H](Cc2ccccc2)C(=O)N[C@H](C(=O)N[C@@H](Cc2ccc(O)cc2)C(N)=O)CCC(=O)NC[C@@H]2N[C@@H](C)C(=O)N21")
"100%"

---

# test-system: chymotrypsin (Bos taurus)
# protocol-description: Enzymatic degradation study: proteolytic stability on incubation with chymotrypsin (HPLC, LCMS)
# Type: in vitro ADME
# test-conditions: chymotrypsin, 10 mM Tris buffer pH 7.5, peptide 1.5 mM; time 0 min
Ends that are not written are not given here.
value-kind: enzyme degradation studies, peptide at time point (%)

>>> experimental_result("AVGPFEY-NH2 [AVGPFEY]")
100

---

# test-system: chymotrypsin (Bos taurus, UniProt P00766)
# protocol-description: Enzymatic degradation study: proteolytic stability on incubation with chymotrypsin (HPLC, LCMS)
# Format: in vitro ADME
# test-conditions: chymotrypsin (isolated protease) in Tris buffer; chymotrypsin, 10 mM Tris buffer pH 7.5, peptide 1.5 mM; time 45 min; read-out: enzyme degradation studies, peptide at time point
Ends that are not written are not given here.
value-kind: remaining at 0.75 h, 1.5 mM (%)

>>> experimental_result("AVGPFEY-NH2 [AVGPFEY]")
20.2

---

# test-system: chymotrypsin (Bos taurus)
# protocol-description: Enzymatic degradation study: proteolytic stability on incubation with chymotrypsin (HPLC, LCMS)
# Assay type: in vitro ADME
# test-conditions: chymotrypsin (isolated protease) in Tris buffer; chymotrypsin, 10 mM Tris buffer pH 7.5, peptide 1.5 mM; time 30 min; read-out: enzyme degradation studies, peptide at time point
value-kind: remaining at 0.5 h, 1.5 mM (%)

>>> experimental_result("CC(C)[C@H]1C(=O)NCC(=O)N2CCC[C@H]2C(=O)N[C@@H](Cc2ccccc2)C(=O)N[C@H](C(=O)N[C@@H](Cc2ccc(O)cc2)C(N)=O)CCC(=O)NC[C@@H]2N[C@@H](C)C(=O)N21 [2a, cyc(Ala-Val-Gly-Pro-Phe-Glu)Tyr]")
100

---

# test-system: chymotrypsin (Bos taurus, UniProt P00766)
# protocol-description: Enzymatic degradation study: proteolytic stability on incubation with chymotrypsin (HPLC, LCMS)
# Type: in vitro ADME
# test-conditions: chymotrypsin in Tris buffer, pH 7.5; HPLC and MS analysis; read-out: half-life in the presence of chymotrypsin
Ends that are not written are not given here.
value-kind: half-life at 1.5 mM (min)

>>> experimental_result("AVGPFEY-NH2 [AVGPFEY]")
20

---

# test-system: UniProt P00766
# protocol-description: Enzymatic degradation study: proteolytic stability on incubation with chymotrypsin (HPLC, LCMS)
# Assay type: in vitro ADME
# test-conditions: chymotrypsin (isolated protease) in Tris buffer; chymotrypsin, 10 mM Tris buffer pH 7.5, peptide 1.5 mM; time 90 min; read-out: enzyme degradation studies, peptide at time point
value-kind: remaining at 1.5 h, 1.5 mM (%)

>>> experimental_result("CC(C)[C@H]1C(=O)NCC(=O)N2CCC[C@H]2C(=O)N[C@@H](Cc2ccccc2)C(=O)N[C@H](C(=O)N[C@@H](Cc2ccc(O)cc2)C(N)=O)CCC(=O)NC[C@@H]2N[C@@H](C)C(=O)N21")
100

---

# test-system: chymotrypsin (Bos taurus)
# protocol-description: Enzymatic degradation study: proteolytic stability on incubation with chymotrypsin (HPLC, LCMS)
# Format: in vitro ADME
# test-conditions: chymotrypsin (isolated protease) in Tris buffer; chymotrypsin, 10 mM Tris buffer pH 7.5, peptide 1.5 mM; time 5 min; read-out: enzyme degradation studies, peptide at time point
Ends that are not written are not given here.
value-kind: remaining at 5 min, 1.5 mM

>>> experimental_result("AVGPFEY-NH2 [AVGPFEY]")
"82.9%"

---

# test-system: chymotrypsin (Bos taurus)
# protocol-description: Enzymatic degradation study: proteolytic stability on incubation with chymotrypsin (HPLC, LCMS)
# Type: in vitro ADME
# test-conditions: chymotrypsin (isolated protease) in Tris buffer; chymotrypsin, 10 mM Tris buffer pH 7.5, peptide 1.5 mM; time 480 min; read-out: enzyme degradation studies, peptide at time point
value-kind: remaining at 8 h, 1.5 mM (%)

>>> experimental_result("CC(C)[C@H]1C(=O)NCC(=O)N2CCC[C@H]2C(=O)N[C@@H](Cc2ccccc2)C(=O)N[C@H](C(=O)N[C@@H](Cc2ccc(O)cc2)C(N)=O)CCC(=O)NC[C@@H]2N[C@@H](C)C(=O)N21 [2a, cyc(Ala-Val-Gly-Pro-Phe-Glu)Tyr]")
91.9

---

# test-system: chymotrypsin (Bos taurus)
# protocol-description: Enzymatic degradation study: proteolytic stability on incubation with chymotrypsin (HPLC, LCMS)
# Assay type: in vitro ADME
# test-conditions: chymotrypsin (isolated protease) in Tris buffer; chymotrypsin, 10 mM Tris buffer pH 7.5, peptide 1.5 mM; time 120 min; read-out: enzyme degradation studies, peptide at time point
value-kind: remaining at 2 h, 1.5 mM (%)

>>> experimental_result("CC(C)[C@H]1C(=O)NCC(=O)N2CCC[C@H]2C(=O)N[C@@H](Cc2ccccc2)C(=O)N[C@H](C(=O)N[C@@H](Cc2ccc(O)cc2)C(N)=O)CCC(=O)NC[C@@H]2N[C@@H](C)C(=O)N21")
100

---

# test-system: chymotrypsin (Bos taurus, UniProt P00766)
# protocol-description: Enzymatic degradation study: proteolytic stability on incubation with chymotrypsin (HPLC, LCMS)
# Type: in vitro ADME
# test-conditions: chymotrypsin (isolated protease) in Tris buffer; chymotrypsin, 10 mM Tris buffer pH 7.5, peptide 1.5 mM; time 90 min; read-out: enzyme degradation studies, peptide at time point
Ends that are not written are not given here.
value-kind: remaining at 1.5 h, 1.5 mM (%)

>>> experimental_result("AVGPFEY-NH2 [AVGPFEY]")
7.7

---

# test-system: chymotrypsin (Bos taurus)
# protocol-description: Enzymatic degradation study: proteolytic stability on incubation with chymotrypsin (HPLC, LCMS)
# Assay type: in vitro ADME
# test-conditions: chymotrypsin (isolated protease) in Tris buffer; chymotrypsin, 10 mM Tris buffer pH 7.5, peptide 1.5 mM; time 30 min; read-out: enzyme degradation studies, peptide at time point
Ends that are not written are not given here.
value-kind: remaining at 0.5 h, 1.5 mM

>>> experimental_result("AVGPFEY-NH2 [AVGPFEY]")
"38.6%"
